// provenance: patent US20260327250A1

METHOD SUMMARY: in vitro
RUN PARAMETERS: human, microsomes, Remaining Percentage after 60 min, human liver microsomes, with cofactors
As shown below, each of these molecules has a reported remaining at 1 h, 2 µM value.
MEASURED ENDPOINT: remaining at 1 h, 2 µM (%)

CN(C)CCc1c[nH]c2cccc(OC(=O)CCCC(=O)Oc3cccc4[nH]cc(CCN(C)C)c34)c12 | 0
CN(C)CCc1c[nH]c2cccc(O)c12 [Psilocin, 4-hydroxy-N,N-dimethyltryptamine, reference compound] | 70.2

* * *

METHOD SUMMARY: Rat plasma stability
RUN PARAMETERS: rat, plasma
Counter-ions that a name gives are not always drawn.
MEASURED ENDPOINT: remaining at 1 h (%)

CC(C)N(CCc1c[nH]c2cccc(OC(=O)CCCC(=O)Oc3cccc4[nH]cc(CCN(C(C)C)C(C)C)c34)c12)C(C)C [Compound I-37, dihydrochloride] | 0
CC[C@H](C)C(=O)O[C@H]1C[C@@H](C)C=C2C=C[C@H](C)[C@H](CC[C@@H]3C[C@@H](O)CC(=O)O3)[C@H]21 [Lovastatin, reference compound] | 0

* * *

ASSAY SYSTEM: human 5-hydroxytryptamine receptor 2A (5-HT2A) (Homo sapiens, UniProt P28223)
Construct: expressed in transfected cells; host or cells: HTR2A&Ga15-HEK293
Sequence (P28223 whole entry): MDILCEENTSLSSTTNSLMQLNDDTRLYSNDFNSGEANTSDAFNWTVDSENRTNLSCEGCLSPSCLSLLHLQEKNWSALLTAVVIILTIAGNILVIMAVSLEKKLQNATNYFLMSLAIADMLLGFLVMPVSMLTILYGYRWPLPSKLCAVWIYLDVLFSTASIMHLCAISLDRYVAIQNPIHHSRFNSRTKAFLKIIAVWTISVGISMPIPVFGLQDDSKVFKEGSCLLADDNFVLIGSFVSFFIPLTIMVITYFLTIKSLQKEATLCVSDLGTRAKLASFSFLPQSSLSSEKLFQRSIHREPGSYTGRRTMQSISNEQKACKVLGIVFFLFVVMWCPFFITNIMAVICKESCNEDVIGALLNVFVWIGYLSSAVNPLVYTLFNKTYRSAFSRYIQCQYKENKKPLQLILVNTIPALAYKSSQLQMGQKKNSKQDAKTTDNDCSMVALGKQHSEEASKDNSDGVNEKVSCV
METHOD SUMMARY: Human 5-HT2A functional FLIPR assay (agonist mode)
Type: cell-based
RUN PARAMETERS: 10 μM; footnote: Curve fitting with activation (%) @ 10 mM with RFU
Where a name gives a salt, the structure may show the parent alone.
MEASURED ENDPOINT: RFU@10 μM (RFU)

CN(C)CCc1c[nH]c2cccc(OC(=O)CCCC(=O)Oc3cccc4[nH]cc(CCN(C)C)c34)c12 [Compound I-24] | 3061
CC(C)N(CCc1c[nH]c2cccc(OC(=O)CCCC(=O)Oc3cccc4[nH]cc(CCN(C(C)C)C(C)C)c34)c12)C(C)C [Compound I-37, dihydrochloride] | 6768
CN(C)CCc1c[nH]c2cccc(O)c12 [Psilocin, 4-hydroxy-N,N-dimethyltryptamine, reference compound] | 308
CN(C)CCc1c[nH]c2cccc(OP(=O)(O)O)c12 [Psilocybin] | 257
CC(C)N(CCc1c[nH]c2cccc(O)c12)C(C)C [Compound 7] | 6358

* * *

METHOD SUMMARY: in vitro
RUN PARAMETERS: human, plasma
MEASURED ENDPOINT: remaining at 4 h

CN(C)CCc1c[nH]c2cccc(OC(=O)CCCC(=O)Oc3cccc4[nH]cc(CCN(C)C)c34)c12 [Compound I-24] | 0%

* * *

METHOD SUMMARY: Dog plasma stability
RUN PARAMETERS: dog, plasma
Counter-ions that a name gives are not always drawn.
MEASURED ENDPOINT: remaining at 3 h (%)

CC[C@H](C)C(=O)O[C@H]1C[C@@H](C)C=C2C=C[C@H](C)[C@H](CC[C@@H]3C[C@@H](O)CC(=O)O3)[C@H]21 [Lovastatin, reference compound] | 22.4
CC(C)N(CCc1c[nH]c2cccc(OC(=O)CCCC(=O)Oc3cccc4[nH]cc(CCN(C(C)C)C(C)C)c34)c12)C(C)C [Compound I-37, dihydrochloride] | 31.6

* * *

METHOD SUMMARY: Mouse plasma stability
RUN PARAMETERS: mouse, plasma
Structures can show the parent of a compound that is named as a salt.
MEASURED ENDPOINT: remaining at 2 h (%)

CC(C)N(CCc1c[nH]c2cccc(OC(=O)CCCC(=O)Oc3cccc4[nH]cc(CCN(C(C)C)C(C)C)c34)c12)C(C)C [Compound I-37, dihydrochloride] | 0
CC(C)[N+](C)(CCOC(=O)C1c2ccccc2Oc2ccccc21)C(C)C [Propantheline, reference compound] | 9.12
